Listed below are compounds with Ki for HPK1 (Homo sapiens (Human), UniProt Q92918), each taken from published literature.

CN1CCN(c2ccc(-c3n[nH]c4ccc(-c5cncc(-c6ncco6)c5)nc34)cc2)CC1 ... ≤ 100 nM
CN1CCN(c2ccc(-c3n[nH]c4ccc(-c5cccc(C(=O)NCc6ccccc6)c5F)nc34)cc2)CC1 ... ≤ 100 nM
COc1cccc(C(=O)Nc2n[nH]c3cnc(-c4c(F)cc(CNC(C)C)cc4F)cc23)c1 ... ≤ 100 nM
COc1ccncc1-c1ncc2[nH]nc(-c3ccc(N4CCN(C)CC4)cc3)c2n1 ... ≤ 100 nM
Nc1ccc(-c2cnc3c(c2)C2(CC2)CN3)c(F)c1C(=O)N1CCCC1CO (centres unmarked) ... 32.8 nM
Cc1cc(CNCC(C)(C)O)cc(F)c1-c1cc2c(-c3cnn(C)c3)n[nH]c2cn1 ... ≤ 100 nM

Please go through the list and note Ki for each compound.
1. COc1cccc(F)c1-c1cc2c(-c3cnc(N4CCOCC4)s3)n[nH]c2cn1
2. CN(c1ccc2c(-c3cnc4c(c3)C3(CC3)CN4)c[nH]c2c1)c1cnn(C)c1
3. COc1cccc(F)c1-c1ncc2[nH]nc(-c3cc(C)n[nH]3)c2n1

≤ 100 nM
74 nM
≤ 100 nM

Please go through the list and note Ki for each compound.
1. CCOC(=O)c1cccc(-c2ccc3[nH]nc(-c4ccc(N5CCN(C)CC5)cc4)c3n2)c1F
2. CCS(=O)(=O)c1cccc(-c2cnc3c(c2Cl)C2(CC=CC2)CN3)c1

≤ 100 nM
50.3 nM
